- Experimental system: T1, ybbR-tagged PTP1B catalytic domain (amino acids 1-321) (UniProt P18031 1-321, Texas Red attached through CoA/Sfp to the ybbR tag (library screening only))
- T1 construct: range 1-321; also called Texas red-labeled PTP1B; protein-tyrosine phosphatase 1B
- T1 sequence: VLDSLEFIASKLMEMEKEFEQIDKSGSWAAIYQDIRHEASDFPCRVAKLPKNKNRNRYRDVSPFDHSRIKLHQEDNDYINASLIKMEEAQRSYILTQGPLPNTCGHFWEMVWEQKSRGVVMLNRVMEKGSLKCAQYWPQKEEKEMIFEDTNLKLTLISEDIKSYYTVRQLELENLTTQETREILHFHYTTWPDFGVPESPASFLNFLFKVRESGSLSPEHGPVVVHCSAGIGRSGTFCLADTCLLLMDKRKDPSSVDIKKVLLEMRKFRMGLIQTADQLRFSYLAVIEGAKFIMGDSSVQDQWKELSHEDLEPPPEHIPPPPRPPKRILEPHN
- Test description: PTP1B-catalyzed pNPP hydrolysis, competitive inhibition (Lineweaver-Burk and secondary plot)
Non-standard residues stand in square brackets, D forms with d. F2Pmp = N[C@@H](Cc1ccc(C(F)(F)P(=O)(O)O)cc1)C(=O)O; 2Nal = N[C@@H](Cc1ccc2ccccc2c1)C(=O)O
Measured property: Ki (nM)
Quick reminder: number only, in nM, skip the unit.

Query block: Please supply the value of reported Ki for the item cyclo(S[dV]P[F2Pmp]HRRRR[2Nal]FQ) [Monocyclic Inhibitor 2]
Result block: 54

This collection of values is drawn from patent US20170355730A1.
